Assay system: M3 muscarinic receptor (Rattus norvegicus, UniProt P08483)
Sequence (P08483 whole entry): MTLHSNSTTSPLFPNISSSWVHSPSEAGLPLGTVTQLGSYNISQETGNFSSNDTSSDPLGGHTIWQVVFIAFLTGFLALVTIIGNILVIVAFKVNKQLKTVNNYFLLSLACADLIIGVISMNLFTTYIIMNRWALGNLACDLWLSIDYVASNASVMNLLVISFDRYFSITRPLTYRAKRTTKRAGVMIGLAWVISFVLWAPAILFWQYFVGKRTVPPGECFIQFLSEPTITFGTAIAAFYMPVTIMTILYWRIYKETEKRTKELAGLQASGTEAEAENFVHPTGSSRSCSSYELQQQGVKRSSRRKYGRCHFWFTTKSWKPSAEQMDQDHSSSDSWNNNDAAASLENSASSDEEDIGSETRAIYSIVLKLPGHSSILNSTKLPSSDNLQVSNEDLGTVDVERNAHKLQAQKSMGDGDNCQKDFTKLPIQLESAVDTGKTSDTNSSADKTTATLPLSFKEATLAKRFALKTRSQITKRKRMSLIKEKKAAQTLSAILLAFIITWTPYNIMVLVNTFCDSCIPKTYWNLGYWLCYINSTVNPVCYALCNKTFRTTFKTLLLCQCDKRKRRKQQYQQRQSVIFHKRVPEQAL
Decide using Ki alone. Strictly below 70 nM: Criterion met. Equal to or above 70 nM: Criterion not met.

Field: example entries. Status: answers known.
O=C(NCC1C2CN(Cc3ccccc3)CC12)C(O)(c1ccccc1)C1CCCCC1 (single isomer, unassigned) [Compound No. 28]    Criterion met
CC(NC(=O)C(O)(c1ccccc1)C1CCCCC1)[C@H]1[C@@H]2CN(Cc3ccccc3)C[C@@H]21 (stereo partly drawn) [Compound No. 24]    Criterion met
O=C(NCC1C2CN(Cc3ccccc3)CC12)C(O)(c1ccccc1)C1CCCC1 (stereo not drawn) [Compound No. 61]    Criterion met
CC(NC(=O)C(O)(c1ccccc1)C1CCCC1)[C@H]1[C@@H]2CN(Cc3ccccc3)C[C@@H]21 (stereo partly drawn) [Compound No. 25]    Criterion met

### Prompt In the record for O=C(NC[C@@H]1[C@H]2CN(Cc3ccncc3)C[C@@H]12)C(O)(c1ccccc1)C1CCCC1 (stereo partly drawn) [Compound No. 48] , is Ki less than 70 nM?
### Response Criterion not met

### Prompt Criterion: Ki strictly below 70 nM. Is it met by O=C(NC[C@@H]1[C@H]2CN(Cc3ccccc3)C[C@@H]12)C(O)(c1ccccc1)C1CCC1 (stereo partly drawn) [Compound No. 37] ?
### Response Criterion met

### Prompt Just wondering, is Ki of O=C(NC[C@@H]1[C@H]2CN(Cc3ccccc3)C[C@@H]12)C(O)(c1ccccc1)C1CC1 (stereo partly drawn) [Compound No. 38] below 70 nM?
### Response Criterion met

### Prompt Hello, I'm reviewing records and need to know if Ki of O=C(NCC1C2CN(CCc3ccc4c(c3)CCO4)CC12)C(O)(c1ccccc1)C1CCCC1 (stereo not drawn) [Compound No. 10] is below 70 nM. Could you check?
### Response Criterion met

### Prompt Regarding O=C(NC[C@@H]1[C@H]2CN(Cc3ccccc3)C[C@@H]12)C(O)(c1ccccc1)c1ccccc1 [Compound No. 1] , kindly confirm whether its Ki is beneath 70 nM.
### Response Criterion met

### Prompt Field: below-cutoff. Rule: recorded Ki strictly less than 70 nM. Subject: O=C(NC[C@@H]1[C@H]2CN(Cc3cccnc3)C[C@@H]12)C(O)(c1ccccc1)C1CCCCC1 (stereo partly drawn) [Compound No. 45]
### Response Criterion not met

### Prompt is_below(Ki, 70 nM) for O=C(NC[C@@H]1[C@H]2CN(Cc3ccncc3)C[C@@H]12)C(O)(c1ccccc1)c1ccccc1 [Compound No. 50] ?
### Response Criterion not met

====

Assay system: M3 muscarinic receptor (Rattus norvegicus, UniProt P08483)
Result type: Receptor Binding Assay Selectivity M2/M3

CC(C)=CCN1C[C@@H]2[C@@H](CNC(=O)C(O)(c3ccccc3)C3CCCCC3)[C@@H]2C1 (stereo partly shown)    3.7

### Prompt Look up and report measured Receptor Binding Assay Selectivity M2/M3 (M3 muscarinic receptor (Rattus norvegicus, UniProt P08483)) for the following compound: CC(NC(=O)C(O)(c1ccccc1)C1CCCCC1)[C@H]1[C@@H]2CN(Cc3ccccc3)C[C@@H]21 (stereo partly shown)
### Response 8.9

### Prompt Under M3 muscarinic receptor (Rattus norvegicus, UniProt P08483): report Receptor Binding Assay Selectivity M2/M3 of CC(c1ccccc1)N1CC2C(CNC(=O)C(O)(c3ccccc3)C3CCCCC3)C2C1 (stereo not shown) .
### Response 17

### Prompt Find the measured Receptor Binding Assay Selectivity M2/M3 of CC(NC(=O)C(O)(c1ccccc1)c1ccccc1)[C@H]1[C@@H]2CN(Cc3ccccc3)C[C@@H]21 (stereo partly shown) with M3 muscarinic receptor (Rattus norvegicus, UniProt P08483) as test system.
### Response 3.7

### Prompt Return reported Receptor Binding Assay Selectivity M2/M3 for target or system M3 muscarinic receptor (Rattus norvegicus, UniProt P08483), item O=C(NCC1C2CN(CCc3ccc4c(c3)CCO4)CC12)C(O)(c1ccccc1)C1CCCC1 (stereo not shown) .
### Response 10.47

### Prompt Output reported Receptor Binding Assay Selectivity M2/M3 of the compound CC(NC(=O)C(O)(c1ccccc1)C1CCCC1)[C@H]1[C@@H]2CN(Cc3ccccc3)C[C@@H]21 (stereo partly shown) on M3 muscarinic receptor (Rattus norvegicus, UniProt P08483).
### Response 17

### Prompt Enter recorded Receptor Binding Assay Selectivity M2/M3 with M3 muscarinic receptor (Rattus norvegicus, UniProt P08483) for O=C(NC[C@@H]1[C@H]2CN(Cc3ccccc3)C[C@@H]12)C(O)(c1ccccc1)c1ccccc1 here.
### Response 10

====

Item-by-item account of pKi
Assay system: M2 muscarinic receptor (Rattus norvegicus)
Construct: Submandibular glands and heart were isolated and placed in ice cold homogenising buffer
Assay details: biochemical
Condition parameters: Receptor Binding Assay M2 pKi
Entry type: numeric. Quantity: pKi, the -log10 of concentration in molar units.

O=C(NC[C@@H]1[C@H]2CN(Cc3ccccc3)C[C@@H]12)C(O)(c1ccccc1)C1CCCC1 (stereo partly shown) [Compound No. 3]    7.02
O=C(NC[C@@H]1[C@H]2CN(CCc3ccc4c(c3)CCO4)C[C@@H]12)C(O)(c1ccccc1)C1CCCCC1 (stereo partly shown) [Compound No. 9]    6.59

### Prompt State measured pKi of the compound CC(c1ccccc1)N1CC2C(CNC(=O)C(O)(c3ccccc3)C3CCCC3)C2C1 (stereo not shown) [Compound No. 22] with M2 muscarinic receptor (Rattus norvegicus).
### Response 7.06

====

For reference, Receptor Binding Assay Selectivity M2/M3 measured on UniProtKB P08483:
Give your answer as a number; write no unit.

Some entries whose results are on file:
O=C(NC[C@@H]1[C@H]2CN(Cc3ccccc3)C[C@@H]12)[C@@](O)(c1ccccc1)C1CCCC1    28
O=C(NC[C@@H]1[C@H]2CN(Cc3ccccc3)C[C@@H]12)[C@](O)(c1ccccc1)C1CCCC1    11.2
O=C(NC[C@@H]1[C@H]2CN(CCc3ccc4c(c3)CCO4)C[C@@H]12)C(O)(c1ccccc1)C1CCCCC1 (some centres unmarked)    6.6
O=C(NC[C@@H]1[C@H]2CN(Cc3ccccc3)C[C@@H]12)C(O)(c1ccccc1)C1CCCC1 (some centres unmarked)    16

### Prompt Write down measured Receptor Binding Assay Selectivity M2/M3 (UniProtKB P08483) for this compound. O=C(NCC1C2CN(Cc3ccccc3)CC12)C(O)(c1ccccc1)C1CCCC1 (centres unmarked)
### Response 8

====

Assay system: M2 muscarinic receptor (Rattus norvegicus)
Construct: Submandibular glands and heart were isolated and placed in ice cold homogenising buffer
Assay details: biochemical
Condition parameters: Receptor Binding Assay M2 pKi
pKi: −log10 of the molar value. Where a name gives a salt, the structure may show the parent alone.
Would you mind labelling by pKi? At or over 7 is label 1, under is label 0.

Answered examples (3):
O=C(NC[C@@H]1[C@H]2CN(Cc3ccccc3)C[C@@H]12)[C@](O)(c1ccccc1)C1CCCC1    label 1
O=C(NC[C@@H]1[C@H]2CN(Cc3ccccc3)C[C@@H]12)C(O)(c1ccccc1)C1CCCC1 (some centres unmarked) [Compound No. 62, Maleate salt]    label 1
O=C(NC[C@@H]1[C@H]2CN(Cc3ccncc3)C[C@@H]12)C(O)(c1ccccc1)c1ccccc1    label 0

### Prompt Can O=C(NCC1C2CN(Cc3ccncc3)CC12)C(O)(c1ccccc1)C1CCCCC1 (centres unmarked) be said to have pKi at or above 7?
### Response label 0

====

Examples of compounds with documented Ki follow.
Assay system: M2 muscarinic receptor (Rattus norvegicus, UniProt P10980)
Construct: Submandibular glands and heart were isolated and placed in ice cold homogenising buffer
Sequence (P10980 whole entry): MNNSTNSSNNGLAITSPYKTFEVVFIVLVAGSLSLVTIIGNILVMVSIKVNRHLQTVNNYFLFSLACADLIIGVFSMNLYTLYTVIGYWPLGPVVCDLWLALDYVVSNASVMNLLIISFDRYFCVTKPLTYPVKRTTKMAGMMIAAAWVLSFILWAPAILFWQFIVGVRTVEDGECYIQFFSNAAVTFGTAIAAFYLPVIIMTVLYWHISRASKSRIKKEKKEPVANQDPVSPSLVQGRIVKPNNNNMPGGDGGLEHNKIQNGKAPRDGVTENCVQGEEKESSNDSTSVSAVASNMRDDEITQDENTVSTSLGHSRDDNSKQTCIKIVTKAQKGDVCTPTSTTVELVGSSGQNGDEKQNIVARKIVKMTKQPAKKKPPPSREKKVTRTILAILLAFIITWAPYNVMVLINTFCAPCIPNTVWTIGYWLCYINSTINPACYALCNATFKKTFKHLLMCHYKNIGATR
Assay details: biochemical
Condition parameters: Receptor Binding Assay M2 pKi
Number in nM, nothing else.

CC(NC(=O)C(O)(c1ccccc1)C1CCCC1)[C@H]1[C@@H]2CN(Cc3ccccc3)C[C@@H]21 (stereo partly shown)    427
O=C(NCC1C2CN(CCc3ccc4c(c3)CCO4)CC12)C(O)(c1ccccc1)C1CCCC1 (stereo not shown)    339
O=C(NCC1C2CN(Cc3ccccc3)CC12)C(O)(c1ccccc1)C1CCCCC1 (single isomer, unassigned) [Compound No. 28]    14.1
O=C(NCC1C2CN(Cc3ccccc3)CC12)C(O)(c1ccccc1)C1CCCCC1 (stereo not shown) [Compound No. 2]    141
CC(NC(=O)C(O)(c1ccccc1)C1CCCCC1)[C@H]1[C@@H]2CN(Cc3ccccc3)C[C@@H]21 (stereo partly shown)    275
O=C(NC[C@@H]1[C@H]2CN(Cc3ccccc3)C[C@@H]12)C(O)(c1ccccc1)c1ccccc1    257
CC(c1ccccc1)N1CC2C(CNC(=O)C(O)(c3ccccc3)C3CCCCC3)C2C1 (stereo not shown)    257
CC(C)=CCCN1CC2C(CNC(=O)C(O)(c3ccccc3)C3CCCC3)C2C1 (stereo not shown)    178

Turning now to a further compound:
### Prompt Give me measured Ki, please, for this compound: O=C(NC[C@@H]1[C@H]2CN(Cc3ccccc3)C[C@@H]12)[C@@](O)(c1ccccc1)C1CCCC1
### Response 631

Value source: patent US20070004791A1
